Data credit: PubChem BioAssay (NCI)

Test system: M14 melanoma
Assay: NCI tumour cell line growth inhibition, 48 h
recorded-endpoint: TGI (µM)
Quick note: give the figure in µM, leave out the unit.

Previously resolved entries follow.
INSERT INTO measurements (compound, value_units, measured_value) VALUES
  ('COc1cc2cc(C(=O)N3CC(CCl)c4ccc(NO)cc43)[nH]c2c(OC)c1OC (stereo unspecified)', 'µM', 0.768),
  ('O=C1/C(=C/c2ccc(Cl)cc2)CN(Cc2cn(CCCNc3ccnc4cc(Cl)ccc34)nn2)C/C1=C\c1ccc(Cl)cc1', 'µM', 3.68);

Let us move to another entry and its TGI.
// compound O=C1CC(n2ccnc2)c2c(Cl)sc(Cl)c21 (stereo unspecified) , assay M14 melanoma, TGI value: 35.3

----------
Test system: NCI/ADR-RES ovarian
Experiment: NCI tumour cell line growth inhibition, 48 h
Here, each record is paired with measured GI50 data.

Below, each entry is followed by its recorded GI50 result.
INSERT INTO measurements (compound, measured_value) VALUES
  ('CC(C)n1cc(-c2ccc3c(c2)N(C)CC3)c2c(NS(=O)(=O)c3ccn(C)n3)ccnc21', '49.5 µM'),
  ('COc1ccccc1CNCCCN1C(=O)c2ccc3c4c(ccc(c24)C1=O)C(=O)N(CCCNCCCCNCCCN)C3=O', '2.02 µM'),
  ('CCOC(=O)c1c(C)n([O-])c2cc(F)c(F)cc2[n+]1=O', '0.432 µM'),
  ('CCc1ccc(Oc2c(-c3ccc(OCCc4cccc(C(F)(F)F)c4)cc3O)n[nH]c2C(F)(F)F)cc1', '5.19 µM'),
  ('CC[C@]12C=CCN3CC[C@@]4(c5ccc(OC)cc5N(C)[C@H]4[C@@](O)(C(=O)OC)[C@@H]1OC(=O)CCC(=O)O[C@H]1CC[C@H]4[C@@H]5CCC6=CC(=O)CC[C@@H]6[C@H]5CC[C@]14C)[C@@H]32', '1.69 µM');

// COc1ccc2c(c1)OCC1c3cc(OC)c4ccccc4c3OC21 (stereo not drawn) : GI50 value = 4 µM

Sample Cn1cc(-c2csc(-c3ccccc3)n2)c2cccnc21 ; GI50 observed: 19.3 µM

GI50 recorded for this compound, CCOc1cc(Cl)c(C(C)NC(=O)c2cccc(OC)c2)cc1OCC (stereo not drawn) , is 4.18 µM

----------
System: SK-MEL-28 melanoma
Experiment: NCI tumour cell line growth inhibition, 48 h
Recorded TGI by entry

Record excerpt, results attached:
INSERT INTO assay_data (molecule, measured_value) VALUES
  ('CC(=O)[O-].CC(=O)[O-].O=C([CH-]C(=O)c1ccccc1)c1ccccc1.[Nd+3].[OH3+]', '81.2 µM'),
  ('CSC1=CC(=O)c2ccccc2C1=O', '23.8 µM'),
  ('O=c1ccn(C/C=C/c2ccccc2)c(=S)n1C/C=C/c1ccccc1', '> 100 µM');

The reported TGI value, SK-MEL-28 melanoma, for CC1(C)CC(=O)c2c(-c3ccc(Cl)cc3)c(C#N)c(=S)n(C3OC(CO)C(O)C(O)C3O)c2C1 (stereo not given) reads > 100 µM

Log: SK-MEL-28 melanoma, molecule O=C1CSC(c2ccccc2)N1c1ccc(-c2ccc(-n3c(-c4ccccc4)nc4ccccc4c3=O)cc2)cc1 (stereo not given) , TGI = > 100 µM

----------
Tested on: OVCAR-8 ovarian
Experiment: NCI tumour cell line growth inhibition, 48 h
recorded-endpoint: TGI

Some compounds with recorded TGI:
INSERT INTO results (compound, measured_value) VALUES
  ('CCCCCCCCCCCCCCCC(=O)NS(=O)(=O)OC[C@H]1O[C@@H](n2cnc3c(N)ncnc32)[C@H](O)[C@@H]1O', '1.28 µM'),
  ('N#Cc1c(C#N)c(SSc2c(C#N)c(C#N)c(N)n2-c2cccc3ccccc23)n(-c2cccc3ccccc23)c1N', '> 25.3 µM'),
  ('Nc1nc2ccc(CNc3ccc(C(=O)NC(CC(=O)O)C(=O)O)cc3)cc2c(=O)[nH]1 (stereo not drawn)', '> 100 µM'),
  ('CC(=O)OC(COc1ccc2c(c1)[n+]([O-])nc(N)[n+]2[O-])CN1CCCCC1 (stereo not drawn)', '41 µM'),
  ('CSC12c3cc(C)n(-c4ccc(I)cc4)c3CC(C)(C)CN1C(=O)C2Oc1ccccc1 (stereo not drawn)', '> 100 µM');

The measured TGI associated with COc1nc(=O)[nH]c2c1C(c1ccc([N+](=O)[O-])cc1)c1c(OC)nc(=O)[nH]c1O2 reads > 100 µM

Lab note: measured TGI of COc1cccc(C(=O)NNc2nc(Cl)nc(N3CCN(C(c4ccccc4)c4ccccc4)CC3)n2)c1 was 4.53 µM

----------
// reported TGI per item
Tested on: HS 578T breast
Assay: NCI tumour cell line growth inhibition, 48 h

INSERT INTO results (molecule, measured_value) VALUES
  ('Cc1ccc(C2=NN(c3ccc(S(=O)(=O)NC(=O)NCc4ccccc4)cc3)C(c3ccc(N(C)C)cc3)C2)c(C)c1 (configuration not stated)', '7.02 µM'),
  ('C=C1N(C)c2ccc(S(=O)(=O)c3ccc4c(c3)C(C)(C)C(=C)N4C)cc2C1(C)C', '89.2 µM'),
  ('CCCCCN1C(=O)C(Cc2ccccc2)N=C(c2ccc(O)cc2)c2cc(Cl)ccc21 (configuration not stated)', '32.4 µM'),
  ('COc1ccc2[nH]c(C(=O)OCc3ccc4c(Br)cc(Br)c(O)c4n3)cc2c1', '4.97 µM'),
  ('CC1(C)CC(=O)c2c(-c3ccc(Cl)cc3)c(C#N)c(=S)n(C3OC(CO)C(O)C(O)C3O)c2C1 (configuration not stated)', '> 100 µM');

Item: O=C(Nc1ccccc1)OCCN=c1c2ccccc2ccc2ccccc12 | System: HS 578T breast | TGI: 51.3 µM

With HS 578T breast as the test system, Cc1cc(-c2nc3cc(F)ccc3s2)ccc1N showed TGI of > 82 µM

Reported HS 578T breast TGI for item COC(=O)[C@]12CC[C@H]3CN(S(=O)(=O)c4ccc(C)cc4)[C@H]([C@H]31)[C@H](c1ccco1)N2S(=O)(=O)c1ccc(C)cc1 was > 100 µM

Fill in: HS 578T breast TGI for Cc1ccc2ncnc(N(C)C3CCCCC3)c2c1 = > 100 µM

Entry N#Cc1c(C#N)c(SSc2c(C#N)c(C#N)c(N)n2-c2cccc3ccccc23)n(-c2cccc3ccccc23)c1N , HS 578T breast data, TGI value: > 57.6 µM

With HS 578T breast as the test system, COc1ccc(-c2cc(=O)c3c(OC)c4ccoc4c(/C=C/C=O)c3o2)cc1 showed TGI of > 100 µM

Observed TGI, HS 578T breast, NS(=O)(=O)c1ccc(N=Nc2c(O)[nH]c3ccc(C(=O)NCCCn4ccnc4)cc23)cc1 : > 25 µM

Measured TGI (HS 578T breast), entry CC(=O)N1C(c2[nH]c3ccccc3c2Cc2ccccc2)CCN1c1ccccc1 (configuration not stated) : > 10 µM

So the reported TGI for CCOC(=O)/C(=C\c1c[nH]c2ccccc12)P(=O)(OCC)OCC , on HS 578T breast, turned out to be > 100 µM

Note to self: TGI of C=CC(C)(C)NC(C(=O)N1CCC[C@H]1c1nc(-c2nc(C(=O)OCC=C(C)C)c(C)o2)c(C)o1)C(C)C (some centres not stated) with HS 578T breast was > 100 µM

The measured TGI that CCN1CCN(Cc2ccc(Nc3ncc(F)c(-c4cc(F)c5nc(C)n(C(C)C)c5c4)n3)nc2)CC1 showed for HS 578T breast is 15.3 µM

With HS 578T breast as the test system, C=C(C)COc1ccc2c(c1)CCC1C2CCC2(C)C(=O)/C(=N/O)CC12 (configuration not stated) showed TGI of 27.7 µM

Measured TGI for this entry CC1(C)N=C(C(N)=O)c2ncn(Cc3ccccc3)c2N1 on HS 578T breast: > 100 µM

The molecule COC1(OC)CCN(Cc2ccccc2)C1=O on HS 578T breast: TGI was > 100 µM

----------
# reported TGI; entries follow
Test system: HCT-15 colon
Assay: NCI tumour cell line growth inhibition, 48 h

INSERT INTO assay_data (compound, measured_value) VALUES
  ('O=C(Nn1c(-c2ccccc2)nc2ccccc2c1=O)c1cccc([N+](=O)[O-])c1', '> 100 µM');

The measured TGI associated with O=C1C(Cl)C(c2ccc(O)cc2)N1n1cnc2ccccc2c1=O (stereo unspecified) reads > 100 µM

Quick note, TGI for C/C=C1\Oc2ccc(OC)cc2S1(=O)=O landed at > 100 µM

Per the record, CC(C)n1cc(-c2ccc3c(c2)N(C)CC3)c2c(NS(=O)(=O)c3ccn(C)n3)ccnc21 has TGI of > 100 µM

Short answer for O=C1c2cc3c(cc2[C@@H]2C(O)[C@H]4O[C@H]4C4CCN1C42)OCO3 (stereo partly specified) : TGI was > 37.5 µM

Quick note, TGI for Cc1cc(O)ccc1C1(c2ccc(O)cc2C)OC(=O)c2ccccc21 landed at 30.7 µM

Record O=C1/C(=C/c2ccc(Cl)cc2)CN(Cc2cn(CCCNc3ccnc4cc(Cl)ccc34)nn2)C/C1=C\c1ccc(Cl)cc1 , field TGI: 0.926 µM

TGI reported for this compound CCC1=CC(OCc2ccccc2)C(CCN(Cc2ccccc2)C(=O)OCc2ccccc2)C1 (stereo unspecified) : 29.1 µM

Form: compound = CCCCCOC(=O)Nc1nc(=O)n(C2OC(C)C(O)C2O)cc1F (stereo unspecified) ; TGI = > 10000 µM

TGI in this record for Cc1ccc2ncnc(N(C)C3CCCCC3)c2c1 : 88.7 µM

Field TGI (entry NC(=O)c1c[nH]c2ncnc(N)c12 ) reads > 100 µM

Record Cc1c(-c2coc(-c3ccc([N+](=O)[O-])cc3)n2)c(=O)n(-c2ccccc2)n1C , field TGI: > 100 µM

Lab note: NC(=O)C1=C(O)[C@@]2(O)C(=O)C3=C(O)c4c(O)cccc4CC3C[C@H]2CC1=O (stereo partly specified) gave TGI of 6.21 µM

Lab note: COc1cc(-c2oc3c(OC)c(O)c(OC)c(O)c3c(=O)c2OC)cc(OC)c1OC gave TGI of > 100 µM

compound CO[P@@]1(=O)O[C@@H](c2ccccc2)[C@H](O)[C@@]1(O)c1ccccc1 , TGI observed: > 100 µM

Entry C1CSCCSCCSCCSCCS1 , TGI reported as > 100 µM

Input Nc1c(S(=O)(=O)O)cc(S(=O)(=O)O)c2ccc(N=Nc3ccccc3)c(O)c12 . Output TGI: > 100 µM

Entry CN1C(=O)C(=Cc2ccc(Br)cc2)C(=O)N(C)C1=O , TGI reported as > 100 µM
